Ref: paper PMC9440244

Target: NS1_Nuc WT (nuclease domain of NS1) (human parvovirus B19 (variant …, UniProt A0A097C0M3 2-176))
Assay: EMSA; 1 mM EDTA
Details: protein: recombinant; tags: His-SUMO removed by ULP1; label: 5'-FAM; single strand

binder | Kd
67-ori-top (ssDNA) DNA: AAAATTTAAAAGAAGACACCAAATCAGATGCCGCCGGTCGCCGCCGGTAGGCGGGACTTCCGGTACA | 12.3 µM
